- Test Summary: Cytotoxicity against human primary hepatocytes in absence of serum
- Format: toxicity, cell-based, Hepatocyte
pIC50: −log10 of the molar value.
Endpoint Label: pIC50

Identify measured pIC50 corresponding to C[C@@H](Oc1ccc2c(=O)cc3n(c2c1)CCOC3)c1cc(-n2ccc(Cl)n2)cnn1 < 4.00

----------
Assign pIC50 to each entry below.
pIC50: −log10 of the molar value.

Give pIC50 for this entry on Cytochrome P450 2D6 (Homo sapiens): C[C@@H](Oc1ccc2ncc3c(c2c1)CCOC3)c1cncc(-c2nc(Cl)c[nH]2)c1 > 5.00

Provide Cytochrome P450 2D6 (Homo sapiens) pIC50 reading for C[C@@H](Oc1ccc2c(=O)cc3n(c2c1)CCOC3)c1cc(-n2ccc(Cl)n2)cnn1 . < 5.00

----------
- Assay Target: hERG (Homo sapiens, UniProt Q12809)
- Sequence (Q12809 whole entry): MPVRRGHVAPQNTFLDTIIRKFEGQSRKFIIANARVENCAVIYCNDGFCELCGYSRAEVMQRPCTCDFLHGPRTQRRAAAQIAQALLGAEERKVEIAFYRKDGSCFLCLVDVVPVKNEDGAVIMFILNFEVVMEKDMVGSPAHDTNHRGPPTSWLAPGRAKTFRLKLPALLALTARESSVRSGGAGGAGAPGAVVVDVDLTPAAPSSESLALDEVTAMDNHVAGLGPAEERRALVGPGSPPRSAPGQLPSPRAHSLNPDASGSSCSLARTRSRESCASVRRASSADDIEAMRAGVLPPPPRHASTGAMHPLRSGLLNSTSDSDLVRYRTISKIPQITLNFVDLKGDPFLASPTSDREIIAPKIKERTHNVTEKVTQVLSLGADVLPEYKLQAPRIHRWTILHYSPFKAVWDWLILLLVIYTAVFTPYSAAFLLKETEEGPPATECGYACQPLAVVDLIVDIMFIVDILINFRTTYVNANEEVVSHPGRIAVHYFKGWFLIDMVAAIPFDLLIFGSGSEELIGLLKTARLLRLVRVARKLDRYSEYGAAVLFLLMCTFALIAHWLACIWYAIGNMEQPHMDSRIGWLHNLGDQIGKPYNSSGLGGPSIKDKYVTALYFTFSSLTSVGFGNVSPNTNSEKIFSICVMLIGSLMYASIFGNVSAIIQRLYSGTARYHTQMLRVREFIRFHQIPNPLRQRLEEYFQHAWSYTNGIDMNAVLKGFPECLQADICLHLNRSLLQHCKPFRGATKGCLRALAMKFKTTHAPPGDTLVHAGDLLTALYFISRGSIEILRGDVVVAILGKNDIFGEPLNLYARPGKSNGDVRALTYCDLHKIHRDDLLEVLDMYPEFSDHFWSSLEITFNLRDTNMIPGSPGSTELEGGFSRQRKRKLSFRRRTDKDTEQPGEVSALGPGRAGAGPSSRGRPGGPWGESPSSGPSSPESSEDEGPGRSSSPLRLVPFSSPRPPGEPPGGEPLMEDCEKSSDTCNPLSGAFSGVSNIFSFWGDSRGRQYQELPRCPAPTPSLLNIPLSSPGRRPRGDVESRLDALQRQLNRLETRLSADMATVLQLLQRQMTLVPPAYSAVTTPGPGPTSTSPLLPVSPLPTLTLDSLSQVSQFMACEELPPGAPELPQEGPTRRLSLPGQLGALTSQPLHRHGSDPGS
- Test Summary: Inhibition of hERG at 10 uM relative to control
- Assay type: toxicity
Please respond with reported inhibition at 10 µM for every item in the list.

Report inhibition at 10 µM, nothing else, for this molecule: C[C@@H](Oc1ccc2c(=O)cc3n(c2c1)CCOC3)c1cc(-n2ccc(OC(F)F)n2)cnn1 70%

Supply measured inhibition at 10 µM of C[C@@H](Oc1ccc2c(=O)cc3n(c2c1)CCOC3)c1cc(-n2ccc(Cl)n2)cnn1 in your reply. 28%

----------
- Assay Target: Inosine-5'-monophosphate dehydrogenase (Mycobacterium tuberculosis (strain ATCC 25618 / H37Rv))
- Sequence (P9WKI7 whole entry): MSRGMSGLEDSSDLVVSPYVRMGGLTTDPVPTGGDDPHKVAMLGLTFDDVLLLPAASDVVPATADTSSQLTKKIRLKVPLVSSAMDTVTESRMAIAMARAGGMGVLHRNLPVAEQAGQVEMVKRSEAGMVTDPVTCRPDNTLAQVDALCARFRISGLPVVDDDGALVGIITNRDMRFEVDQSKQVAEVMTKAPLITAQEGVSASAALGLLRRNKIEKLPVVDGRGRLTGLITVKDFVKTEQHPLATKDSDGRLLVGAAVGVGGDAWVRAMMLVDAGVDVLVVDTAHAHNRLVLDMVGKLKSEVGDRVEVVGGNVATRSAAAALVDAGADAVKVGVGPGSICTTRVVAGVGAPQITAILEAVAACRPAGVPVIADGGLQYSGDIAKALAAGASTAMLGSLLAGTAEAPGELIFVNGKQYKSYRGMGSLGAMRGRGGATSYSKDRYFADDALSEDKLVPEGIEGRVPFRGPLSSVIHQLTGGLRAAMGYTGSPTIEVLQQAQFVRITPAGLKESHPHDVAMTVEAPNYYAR
- Test Summary: Inhibition of Mycobacterium tuberculosis GuaB
Endpoint Label: IC50 (nM)
Give a bare numeral; the unit nM is implied.

Using known records, supply IC50 for C[C@@H](Oc1ccc2c(=O)cc3n(c2c1)CCOC3)c1cc(-n2ccc(Cl)n2)cnn1 1.7

----------
- Test Summary: Clearance in human liver microsomes
- Format: ADME, Microsome
Endpoint Label: CLhep predicted (mL/min/kg)
Provide the reading as a plain figure in mL/min/kg.

Give CLhep predicted for C[C@@H](Oc1ccc2c(=O)cc3n(c2c1)CCOC3)c1cncc(-n2ccc(C#N)n2)c1 11

Indicate the recorded CLhep predicted value for this molecule: C[C@@H](Oc1ccc2c(=O)cc3n(c2c1)CCOC3)c1cncc(-n2ccc(Cl)n2)c1 16

Look up and state reported CLhep predicted for C[C@@H](Oc1ccc2c(=O)cc3n(c2c1)CCOC3)c1cncc(-c2nc(C#N)c[nH]2)c1 5.5

Supply recorded CLhep predicted for C[C@@H](Oc1ccc2ncc3c(c2c1)CCOC3)c1cncc(-c2nc(Cl)c[nH]2)c1 here. 19

Provide one value: measured CLhep predicted of C[C@@H](Oc1ccc2ncc(CO)cc2c1)c1cncc(-c2nc(Cl)c[nH]2)c1 12

Annotate the molecule C[C@@H](Oc1cc(-c2ccn[nH]2)cc(N2CCOCC2)c1)c1cncc(-c2nc(Cl)c[nH]2)c1 with its measured CLhep predicted. 16

----------
- System: IMPDH
- Test Summary: Inhibition of human IMPDH
- Assay type: toxicity
pIC50: −log10 of the molar value.
Endpoint Label: pIC50

Please report pIC50 for the following compound: C[C@@H](Oc1ccc2c(=O)cc3n(c2c1)CCOC3)c1cc(-n2ccc(Cl)n2)cnn1 < 4.30

----------
- Test Summary: Lipophilicity, logD of the compound measured at pH 7.4
- Assay type: physicochemical
- Conditions: buffer
For each entry below, report its logD value.
Respond numerically, and do not add a unit to the figure.

Identify measured logD associated with C[C@@H](Oc1ccc2c(=O)cc3n(c2c1)CCOC3)c1cncc(-c2nc(C(F)(F)F)c[nH]2)c1 3

Tell me logD reported for C[C@@H](Oc1ccc2c(=O)cc3n(c2c1)CCOC3)c1cc(-n2ccc(Cl)n2)cnn1 2.3

Using the record for C[C@@H](Oc1ccc2c(=O)cc3n(c2c1)CCOC3)c1cncc(-n2ccc(C#N)n2)c1 , state its measured logD. 1.7

Give a short answer stating reported logD for C[C@@H](Oc1ccc2c(=O)cc3n(c2c1)CCOC3)c1cc(-n2ccc(OC(F)F)n2)cnn1 . 1.6

Given the molecule C[C@@H](Oc1ccc2c(=O)cc3n(c2c1)CCOC3)c1cncc(-n2ccc(Cl)n2)c1 , write its reported logD. 2.8

Give recorded logD. CC(Oc1ccc2c(=O)cc3n(c2c1)CCOC3)c1cncc(-c2nc(Cl)c[nH]2)c1 (racemic) 2.2

Determine from records and report logD for C[C@@H](Oc1ccc2c(=O)cc3n(c2c1)CCOC3)c1cncc(-c2nc(C#N)c[nH]2)c1 2.1

Respond only with logD recorded for C[C@@H](Oc1ccc2c(=O)cc3n(c2c1)CCOC3)c1cncc(-n2ccc(C(F)(F)F)n2)c1 3.1

Look up logD of C[C@@H](Oc1ccc2c(=O)cc3n(c2c1)CCOC3)c1cc(-n2ccc(C(F)(F)F)n2)cnn1 and report it. 2.1
